Reference for the values: PubChem BioAssay (NCI)

- ASSAY SUMMARY: NCI Yeast Anticancer Drug Screen. Data for the rad50 strain (AID 155);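 further: 0% = growth of vehicle-only cultures of the same strain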
- SETUP CONDITIONS: S. cerevisiae rad50 strain growth inhibition; at 50.0 µM; stronger effect = higher value
- Experimental: Growth inhibition of yeast strains with defined genetic alterations is measured as a screen for potential anti-cancer activity. Selected strains with alterations in DNA damage repair or cell cycle control were exposed to compounds and growth inhibition was measured relative to vehicle treated controls. The strain used in this assay is rad50
This is part of a sample that, as a whole, favours compounds with a hit. Of some 79,000 tested, about 15% had one in any assay.
Property: growth inhibition; scope: individual molecules
OBSERVED PROPERTY: growth inhibition (%)

MOLECULE | OBSERVED PROPERTY | RECORDED NUMBER
CCOC(=O)c1c(C)[nH]c(-c2csc(N)n2)c1C | growth inhibition | -5.3
Nc1ccc(/C=C/C(=O)O)cc1 | growth inhibition | -9.1
O=S(=O)(O)c1cccc2ccc(O)cc12 | growth inhibition | -4.05
O=C1c2ccccc2-c2nc3cc4ccccc4cc3nc21 | growth inhibition | 20.1
COc1ccc(C(=O)c2ccc(OC)cc2OC)cc1 | growth inhibition | -4.15
Cc1cc2c(C)[nH]nc2c(C(=O)O)c1C | growth inhibition | 6.85
O=C(NCCCl)NCc1ccccc1 | growth inhibition | -10.9
CCOc1ccccc1/C=C/C(=O)O | growth inhibition | 4.6
CC(=O)NC1C(OCc2ccccc2)OC(COC(=O)CCCCCCCCCCNc2ccc([N+](=O)[O-])c3[nH]c4ccccc4c(=O)c23)C(O)C1OC(C)C(=O)NC(C)C(=O)NC(CCC(N)=O)C(=O)OCc1ccccc1 (configuration not stated) | growth inhibition | 30.7
COc1ccc2oc(=N)c(C(N)=S)cc2c1 | growth inhibition | 28
Cc1cc(C)c(NC(=O)NC2CCCCC2)cc1C | growth inhibition | 3.95
CC(=O)OC1CC23CCC(=O)C2(CC3)C1 (configuration not stated) | growth inhibition | 19.9
O=C(Cn1c2c(c3ccccc31)CCCC2)N1CCCCC1 | growth inhibition | -40.5
N#CC12CC3(CCC1CCC1(C2)OCCO1)OCCO3 (configuration not stated) | growth inhibition | -13.8
COc1ccc(C=Nc2c(O)ccc3c2CCCC3)cc1OC | growth inhibition | 9.55
CCOC(=O)C(CO)NC(=O)C[NH-].CCOC(=O)C(CO)NC(=O)C[NH-].[Cl][Pt+2][Cl] (configuration not stated) | growth inhibition | -12.5
Brc1cc2c(cc1C=NC1CCCCC1)OCO2 | growth inhibition | 25.6
CCOC(=O)C(Cc1cn(S(=O)(=O)c2ccc(C)cc2)cn1)P(=O)(OCC)OCC (configuration not stated) | growth inhibition | -34.5
CCCCCCCCCCCCCC(=O)OC | growth inhibition | 27.6
O=CN(Cc1ccccc1)Cc1ccccc1 | growth inhibition | 5.15
N=C(N)c1nc2ccccc2s1 | growth inhibition | 6.2
c1ccc2c(c1)-c1ccccc1C2N1CCCC1 | growth inhibition | 14.2
Cc1cc(O)c(C(c2c(O)cc(C)c(Cl)c2C)C(Cl)(Cl)Cl)c(C)c1Cl | growth inhibition | 26.1
COc1ccc(N=C(N)N2CCCc3ccccc32)cc1 | growth inhibition | -5.25
C[C@H]1C(=O)OCN1S(=O)(=O)C(C)(C)C | growth inhibition | -0.05
O=S(=O)(c1ccccc1)N1N=C2c3ccccc3CCC[C@H]2C1c1ccccc1 (some centres not stated) | growth inhibition | 51.1
ClC(Cl)(Cl)C(=NNc1ccccc1)C(Cl)(Cl)Cl | growth inhibition | -0.1
